B1: Nucleus-vacuole junction protein 1 (Saccharomyces cerevisiae), P38881 (parent)
chain: MTRPPLVRGIFSLGLSVAVLKGVEKTVRKHLERQGWIEPQKVDYELIFTIDRLKNLVDNKREALTAEQPDAGELSWRKVFNFISRQSSELDTRIYVLILLLSFLLPIAWTVLDGDRETTLEDKDNDCNVDLIENERRLKHYNDGERAVLQFGKNRSEPIILSYKDMNVLEGEHEFTSKEEHSNSHLTSKSENALNQVGSEDLLGCHLEKQLEEDKNEPNGEADGEDDNNREKDCSSSSEVESQSKCRKESTAEPDSLSRDTRTTSSLKSSTSFPISFKGSIDLKSLNQPSSLLHIQVSPTKSSNLDAQVNTEQAYSQPFRY
partner: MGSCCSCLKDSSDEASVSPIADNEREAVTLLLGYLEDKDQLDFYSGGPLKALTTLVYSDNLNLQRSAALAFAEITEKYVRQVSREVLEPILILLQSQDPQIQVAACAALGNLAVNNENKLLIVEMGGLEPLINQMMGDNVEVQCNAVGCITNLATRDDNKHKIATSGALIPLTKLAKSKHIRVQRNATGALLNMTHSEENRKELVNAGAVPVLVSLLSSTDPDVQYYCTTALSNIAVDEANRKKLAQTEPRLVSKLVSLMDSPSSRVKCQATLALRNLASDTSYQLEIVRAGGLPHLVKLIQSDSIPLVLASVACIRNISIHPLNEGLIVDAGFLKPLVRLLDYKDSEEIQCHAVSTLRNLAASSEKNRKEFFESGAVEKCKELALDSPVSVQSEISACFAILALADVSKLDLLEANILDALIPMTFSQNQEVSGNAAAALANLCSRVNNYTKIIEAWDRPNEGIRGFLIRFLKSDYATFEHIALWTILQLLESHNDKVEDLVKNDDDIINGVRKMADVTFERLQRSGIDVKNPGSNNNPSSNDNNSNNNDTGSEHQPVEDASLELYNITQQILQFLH

- Variants of: B1
- conditions: with vac8_yeast VAC8, P39968
measure name: effect of a mutation on the interaction

variant code	val
P299S	with no effect
S303A	with no effect
